- Test system: CAKI-1
- ASSAY_EXPLANATION: NCI tumour cell line growth inhibition, 48 h
Activity calls are given as the source filed them. No stated cut-off is given here; in the data, active = GI50 up to about 1.1 µM and inactive = higher.
Assignment: determine reported GI50 for the given molecules.

Exercise: For CC(C)(O)[C@@H]1CC[C@@]2(C)CCC[C@H](O)[C@H]2C1 , what is its reported GI50?
Key: > 100 µM (inactive)

Exercise: For CCOP(=O)(OCC)C(C)(CC)N/C(=N\C1=NC(C(F)(F)F)(C(F)(F)F)N=C(C(F)(F)F)O1)NC(NC(C)=O)(C(F)(F)F)C(F)(F)F (stereo not drawn) , what is its reported GI50?
Key: 42 µM (inactive)

Exercise: For O=C(O)C1Cc2[nH]cnc2CN1 (stereo not drawn) , what is its reported GI50?
Key: > 100 µM (inactive)

Exercise: For CCOC(=O)/C(C(N)=O)=C(O)/C(O)=C(\Br)C(=O)c1ccccc1 , what is its reported GI50?
Key: 11.1 µM (inactive)

Exercise: For c1ccc([P+](CCC[P+](c2ccccc2)(c2ccccc2)c2ccccc2)(c2ccccc2)c2ccccc2)cc1 , what is its reported GI50?
Key: > 100 µM (inactive)

Exercise: For O=S(=O)(O)c1cc(O)c2c(O)c(/N=N/c3ccc(/C=C/c4ccc(/N=N/c5c(S(=O)(=O)O)cc6cc(S(=O)(=O)O)cc(O)c6c5O)cc4S(=O)(=O)O)c(S(=O)(=O)O)c3)c(S(=O)(=O)O)cc2c1 , what is its reported GI50?
Key: > 100 µM (inactive)

Exercise: For CCCCCCCCOCC(O)COC(=O)CCCCCCC (stereo not drawn) , what is its reported GI50?
Key: > 100 µM (inactive)

Exercise: For O=c1oc2ccc3ccccc3c2cc1-c1nnc(-c2ccc([N+](=O)[O-])cc2)[nH]1 , what is its reported GI50?
Key: > 100 µM (inactive)
